Cited source for all entries: patent US6878698B2

MEASUREMENT PROTOCOL: in vivo
PROTOCOL CONDITIONS: male, Wistar Han, rat, plasma, iv, 0.1 mg/kg
ENDPOINT LABEL: clearance (mL/min/kg)
Your answer is read as mL/min/kg, so omit the unit and give the number.

Worked set:
{"COMPOUND": "CC1CC2C3CC(F)C4=CC(=O)C=CC4(C)C3(F)C(O)CC2(C)C1(OC(=O)c1ccon1)C(=O)SCF (stereo not drawn)", "ENDPOINT LABEL": "clearance", "VALUE": 51}
{"COMPOUND": "Cc1cc(C(=O)OC2(C(=O)SCF)C(C)CC3C4CC(F)C5=CC(=O)C=CC5(C)C4(F)C(O)CC32C)on1 (stereo not drawn)", "ENDPOINT LABEL": "clearance", "VALUE": 46}
{"COMPOUND": "Cc1ncsc1C(=O)OC1(C(=O)SCF)C(C)CC2C3CC(F)C4=CC(=O)C=CC4(C)C3(F)C(O)CC21C (stereo not drawn)", "ENDPOINT LABEL": "clearance", "VALUE": 42}
{"COMPOUND": "Cc1cc(C(=O)OC2(C(=O)SCF)C(C)CC3C4CC(F)C5=CC(=O)C=CC5(C)C4(F)C(O)CC32C)no1 (stereo not drawn)", "ENDPOINT LABEL": "clearance", "VALUE": 47}
{"COMPOUND": "Cc1ccoc1C(=O)OC1(C(=O)SCF)C(C)CC2C3CC(F)C4=CC(=O)C=CC4(C)C3(F)C(O)CC21C (stereo not drawn)", "ENDPOINT LABEL": "clearance", "VALUE": 48}

The record that follows has no clearance shown yet.
GET /value?item= CC1CC2C3CC(F)C4=CC(=O)C=CC4(C)C3(F)C(O)CC2(C)C1(OC(=O)c1ccsc1)C(=O)SCF (stereo not drawn) &field=clearance returns 49

----------
TARGET: glucocorticoid receptor (GR) (Homo sapiens)
Sequence (P04150 whole entry): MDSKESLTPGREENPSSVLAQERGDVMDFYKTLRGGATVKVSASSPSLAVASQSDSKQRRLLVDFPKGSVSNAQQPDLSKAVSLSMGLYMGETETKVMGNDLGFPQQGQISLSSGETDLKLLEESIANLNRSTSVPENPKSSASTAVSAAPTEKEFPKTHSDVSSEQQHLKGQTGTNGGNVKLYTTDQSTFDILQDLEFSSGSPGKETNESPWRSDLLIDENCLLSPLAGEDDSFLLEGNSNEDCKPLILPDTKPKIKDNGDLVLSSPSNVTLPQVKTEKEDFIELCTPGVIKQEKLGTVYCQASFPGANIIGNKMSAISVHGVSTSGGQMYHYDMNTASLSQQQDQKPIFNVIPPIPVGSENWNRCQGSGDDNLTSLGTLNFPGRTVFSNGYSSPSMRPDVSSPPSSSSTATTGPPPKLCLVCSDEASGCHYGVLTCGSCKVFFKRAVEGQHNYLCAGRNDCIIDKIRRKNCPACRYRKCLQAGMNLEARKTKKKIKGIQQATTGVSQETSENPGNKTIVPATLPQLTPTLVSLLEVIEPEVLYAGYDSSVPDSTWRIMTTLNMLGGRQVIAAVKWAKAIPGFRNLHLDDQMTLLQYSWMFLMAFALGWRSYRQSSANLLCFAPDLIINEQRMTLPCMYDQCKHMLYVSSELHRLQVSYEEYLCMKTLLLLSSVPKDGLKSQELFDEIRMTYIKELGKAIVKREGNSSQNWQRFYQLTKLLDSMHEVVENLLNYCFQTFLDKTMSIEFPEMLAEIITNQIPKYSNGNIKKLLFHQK
MEASUREMENT PROTOCOL: Transactivation (GR): renilla luciferase reporter with glucocorticoid response elements in A549 cells
Format: cell-based
PROTOCOL CONDITIONS: GRE renilla luciferase reporter, 1 h compound, then 0.5 ng/ml TNFα, further 15 hours, read-out: Transactivation (GR) ED50
ENDPOINT LABEL: EC50

GET /value?item= C[C@@H]1C[C@H]2[C@@H]3C[C@H](F)C4=CC(=O)C=C[C@]4(C)[C@@]3(F)[C@@H](O)C[C@]2(C)[C@@]1(OC(=O)c1ccco1)C(=O)O [Metabolite (X)] &field=EC50 returns > 250 nM
